Tested on: SNB-75 CNS
Experiment: NCI-60 one-dose screen, 48 h
Conditions: 10 µM unless noted
The panel holds about 83,000 compounds, 20% with a hit somewhere; the sample as a whole holds those more often. Activity calls are given as the source filed them. How the source made its calls: active means growth percent below 10; inactive means the rest.
Possible outcomes: 1 (yes) = active, 0 (no) = inactive

Cc1nc(/N=C(\N)NC(=O)Nc2cccc([N+](=O)[O-])c2)sc1C	0 (no)
CCCc1cc(=O)n2c(C(=O)Nc3cccc(C(=O)OCC)c3)c(C(=O)Nc3ccc(F)cc3)sc2n1	0 (no)
COc1cc(C2CC(=O)c3ccccc3N2)cc(OC)c1OC (stereo not given)	0 (no)
CSc1nc(NCCO)c(C#N)c(-c2cccc([N+](=O)[O-])c2)n1	0 (no)
CC1=C[C@H]2c3c(c(O)c(O)c4oc5ccccc5c(=O)c34)[C@H](c3cc(O)c(O)c4oc5ccccc5c(=O)c34)[C@H]2C(C)(C)C1	1 (yes)
CCOC(=O)n1cc(-c2nonc2-c2cn(C)c3ncccc23)c2ccccc21	0 (no)
Oc1ccc(N=Cc2ccccc2O)cc1	0 (no)
COc1cccc(C2=NN3C(C2)c2cc(Br)cc(OC)c2OC32CCN(Cc3ccccc3)CC2)c1 (stereo not given)	0 (no)
N#Cc1cnn(-c2nc3c(Cl)cccc3s2)c1N	0 (no)
O=C1/C(=C/c2ccccc2)SC(=S)N1CCc1ccc(O)cc1	0 (no)
